system: Escherichia coli NIHJ; assay: M.I.C. by standard serial dilution method; type: cell-based; conditions: E. coli NIHJ, nutrient agar, 37° C, 18 hours, read-out: minimum inhibitory concentration (M.I.C.)
Let's look at some compounds and their measured MIC.
Number in µg/mL, nothing else.

query-smiles	study-target	assay-value
NC[C@H](O)C(=O)N[C@@H]1C[C@H](N)[C@@H](O[C@H]2O[C@H](CN)[C@@H](O)C[C@H]2N)[C@H](O[C@@H]2O[C@H](CO)[C@H](O)[C@H]2O)[C@H]1O	Escherichia coli NIHJ	0.78
NCC[C@H](O)C(=O)N[C@@H]1C[C@H](N)[C@@H](O[C@H]2O[C@H](CN)[C@@H](O)C[C@H]2N)[C@H](O[C@@H]2O[C@H](CN)[C@H](O)[C@H]2O)[C@H]1O	Escherichia coli NIHJ	0.2
NCC[C@H](O)C(=O)N[C@@H]1C[C@H](N)[C@@H](O[C@H]2O[C@H](CN)[C@@H](O)C[C@H]2N)[C@H](O[C@@H]2O[C@H](CO)[C@H](O)[C@H]2O)[C@H]1O	Escherichia coli NIHJ	0.78
NCC[C@H](O)C(=O)N[C@@H]1C[C@H](N)[C@@H](O[C@H]2O[C@H](CN)[C@@H](O)C[C@H]2N)[C@H](O[C@@H]2O[C@H](CO)[C@@H](O)[C@H]2O)[C@H]1O	Escherichia coli NIHJ	0.78

Supply reported MIC belonging to this compound: NCC[C@H](O)C(=O)N[C@@H]1C[C@H](N)[C@@H](O[C@H]2O[C@H](CN)[C@@H](O)C[C@H]2N)[C@H](O[C@@H]2O[C@@H](CO)[C@H](O)[C@H]2O)[C@H]1O
0.78

* * *

system: Staphylococcus aureus FDA 209P; assay: M.I.C. by standard serial dilution method; format: cell-based; details: FDA209P, S. aureus FDA 209P, nutrient agar, 37° C, 18 hours, read-out: minimum inhibitory concentration (M.I.C.)
value-kind: MIC (µg/mL)
Number in µg/mL, nothing else.

molecule	study-target	unit-name	MIC
NCC[C@H](O)C(=O)N[C@@H]1C[C@H](N)[C@@H](O[C@H]2O[C@H](CN)[C@@H](O)C[C@H]2N)[C@H](O[C@@H]2O[C@H](CO)[C@H](O)[C@H]2O)[C@H]1O	Staphylococcus aureus FDA 209P	µg/mL	0.39
NCC(O)C(=O)N[C@@H]1C[C@H](N)[C@@H](O[C@H]2O[C@H](CN)[C@@H](O)C[C@H]2N)[C@H](O[C@@H]2O[C@H](CO)[C@H](O)[C@H]2O)[C@H]1O (some centres unmarked)	Staphylococcus aureus FDA 209P	µg/mL	3.12
NCC[C@H](O)C(=O)N[C@@H]1C[C@H](N)[C@@H](O[C@H]2O[C@H](CN)[C@@H](O)C[C@H]2N)[C@H](O[C@@H]2O[C@H](CN)[C@H](O)[C@H]2O)[C@H]1O	Staphylococcus aureus FDA 209P	µg/mL	0.39

Supply reported MIC belonging to this molecule: NCC[C@H](O)C(=O)N[C@@H]1C[C@H](N)[C@@H](O[C@H]2O[C@H](CN)[C@@H](O)C[C@H]2N)[C@H](O[C@@H]2O[C@H](CO)[C@@H](O)[C@H]2O)[C@H]1O
0.39

Supply reported MIC belonging to this molecule: NCC[C@H](O)C(=O)N[C@@H]1C[C@H](N)[C@@H](O[C@H]2O[C@H](CN)[C@@H](O)C[C@H]2N)[C@H](O[C@@H]2O[C@@H](CO)[C@H](O)[C@H]2O)[C@H]1O
0.39

src = patent US4065616A
